The origin of these recorded values is patent US10947242B2.

Experimental system: Human recombinant PDE2A (hPDE2A) (Homo sapiens)
Construct: His tag (inferred from metal chelate purification); made in house; host or cells: Sf9 insect cells (baculovirus)
Sequence (O00408 whole entry): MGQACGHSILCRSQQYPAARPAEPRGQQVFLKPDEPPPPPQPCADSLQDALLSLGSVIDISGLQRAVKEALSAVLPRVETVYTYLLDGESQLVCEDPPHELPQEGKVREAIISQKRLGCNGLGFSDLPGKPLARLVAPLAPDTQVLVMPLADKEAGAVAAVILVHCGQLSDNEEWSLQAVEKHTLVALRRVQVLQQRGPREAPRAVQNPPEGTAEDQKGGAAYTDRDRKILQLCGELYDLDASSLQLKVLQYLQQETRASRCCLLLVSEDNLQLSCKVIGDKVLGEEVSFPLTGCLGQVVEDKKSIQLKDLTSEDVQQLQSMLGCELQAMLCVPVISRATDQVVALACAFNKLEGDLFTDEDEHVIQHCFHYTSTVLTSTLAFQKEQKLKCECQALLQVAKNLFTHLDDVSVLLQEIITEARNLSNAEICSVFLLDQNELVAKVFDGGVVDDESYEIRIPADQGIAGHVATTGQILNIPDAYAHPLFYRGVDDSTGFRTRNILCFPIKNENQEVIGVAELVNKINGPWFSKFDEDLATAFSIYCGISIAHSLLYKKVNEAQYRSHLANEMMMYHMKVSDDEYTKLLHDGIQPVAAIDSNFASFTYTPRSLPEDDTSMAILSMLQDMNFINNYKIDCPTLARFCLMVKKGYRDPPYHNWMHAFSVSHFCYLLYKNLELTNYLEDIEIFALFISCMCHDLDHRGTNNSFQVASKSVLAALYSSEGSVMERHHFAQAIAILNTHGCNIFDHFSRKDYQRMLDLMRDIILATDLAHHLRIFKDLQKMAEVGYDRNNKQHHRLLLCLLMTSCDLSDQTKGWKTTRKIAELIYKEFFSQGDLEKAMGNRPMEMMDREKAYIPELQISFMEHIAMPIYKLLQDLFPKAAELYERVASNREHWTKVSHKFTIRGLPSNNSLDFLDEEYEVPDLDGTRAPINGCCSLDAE
Test description: In vitro assay PDE2A (SPA, 3H-cGMP hydrolysis)
Format: biochemical
Condition summary: read-out: hPDE2A pIC50 (converted)
Reported endpoint: IC50 (nM)

Cc1cc(C(=O)N2CC[C@@H](C)[C@H](c3cc(C(F)F)nc4ncnn34)C2)c(C)cn1 = 3.47
CC(C)n1ccc2cc(C(=O)N3[C@H]4CC[C@H](c5cc(C(F)F)nc6ncnn56)[C@@H]3CC4)ccc21 = 0.933
C[C@@H]1CCN(C(=O)c2ccc3c(ccn3CCF)c2)C[C@H]1c1cc(C(F)F)nc2ncnn12 = 0.229

I: C[C@@H]1CCN(C(=O)c2cccnc2N)C[C@H]1c1cc(C(F)F)nc2ncnn12
II: COc1nc(N)ncc1C(=O)N1CC[C@@H](C)[C@H](c2cc(C(F)F)nc3ncnn23)C1
Form field 'greater IC50' accepts I or II ; which applies? # reply format: chosen label
I

1: C[C@@H]1CCN(C(=O)c2ccc(Cl)cn2)C[C@H]1c1cc(C(F)F)nc2ncnn12
2: C[C@@H]1CCN(C(=O)c2ccc(C3CC3)c(F)c2)C[C@H]1c1cc(C(F)F)nc2ncnn12
Form field 'greater IC50' accepts 1 or 2 ; which applies? # reply format: chosen label
1
(1: 51.3 nM, 2: 0.708 nM)

I: C[C@@H]1CCN(C(=O)c2c(F)cccc2F)C[C@H]1c1cc(C(F)F)nc2ncnn12
II: C[C@@H]1CCN(C(=O)c2cnccn2)C[C@H]1c1cc(C(F)F)nc2ncnn12
III: COc1ccc(C(=O)N2CC[C@@H](C)[C@H](c3cc(C(F)F)nc4ncnn34)C2)cc1OC(F)F
IV: C[C@@H]1CCN(C(=O)c2ccnc(Cl)c2)C[C@H]1c1cc(C(F)F)nc2ncnn12
V: C[C@@H]1CCN(C(=O)c2noc3ccccc23)C[C@H]1c1cc(C(F)F)nc2ncnn12
Hi! Can you put these in order of IC50, lowest number first? Hello, could you send the labels back in the order asked? Thank you.
IV, III, V, I, II
(IV: 1.15 nM, III: 2.95 nM, V: 17.8 nM, I: 38.9 nM, II: 263 nM)

A: Cc1cc(C(=O)N2CC[C@@H](C)[C@H](c3cc(C(F)F)nc4ncnn34)C2)on1
B: Cc1cc([C@@H]2CN(C(=O)c3nc4ccccc4o3)CC[C@H]2C)n2ncnc2n1
C: C[C@@H]1CCN(C(=O)c2cc3ccccc3n2C)C[C@H]1c1cc(C(F)F)nc2ncnn12
D: Cc1c(C(=O)N2CC[C@@H](C)[C@H](c3cc(C(F)F)nc4ncnn34)C2)sc2ccccc12
E: C[C@@H]1CCN(C(=O)c2ccncc2C(F)(F)F)C[C@H]1c1cc(C(F)F)nc2ncnn12
Rank the 5 compounds: largest IC50 first, smallest last. Hello, could you send the labels back in the order asked? Thank you.
E, A, B, D, C
(E: 191 nM, A: 41.7 nM, B: 4.57 nM, D: 1.74 nM, C: 1.05 nM)

1: Cc1cc(C(=O)N2CC[C@@H](C)[C@H](c3cc(C(F)F)nc4ncnn34)C2)cc(C(F)(F)F)n1
2: Cc1ccc2cc(C(=O)N3CC[C@@H](C)[C@H](c4cc(C(F)F)nc5ncnn45)C3)c(C)nc2c1
Form field 'greater IC50' accepts 1 or 2 ; which applies? # reply format: chosen label
1

a: Cc1nc2ccc(C(=O)N3CC[C@@H](C)[C@H](c4cc(C(F)F)nc5ncnn45)C3)cc2o1
b: Cc1oncc1C(=O)N1CC[C@@H](C)[C@H](c2cc(C(F)F)nc3ncnn23)C1
c: C[C@@H]1CCN(C(=O)c2cnc3c(Cl)cccc3c2)C[C@H]1c1cc(C(F)F)nc2ncnn12
d: C[C@@H]1CCN(C(=O)c2cc(C(C)(C)C)nc(C(C)(C)C)c2)C[C@H]1c1cc(C(F)F)nc2ncnn12
e: COc1ccc(C(=O)N2CC[C@@H](C)[C@H](c3cc(C(F)F)nc4ncnn34)C2)nc1
Hi! Can you put these in order of IC50, lowest number first? Hello, could you send the labels back in the order asked? Thank you.
c, a, e, b, d
(c: 0.55 nM, a: 2.24 nM, e: 17.4 nM, b: 138 nM, d: 417 nM)
